molecular target: UniProt P68135
endpoint-label: pKd
Friendly reminder that pKd comes from taking -log10 of the concentration in mol/L.

GET /values?readout=pKd&item= O=C(c1ccccc1O)c1[nH]c(Cl)c(Cl)c1-n1c(C(=O)c2ccccc2O)cc(Cl)c1Cl
6.92
